Each recorded value in this set is attributed to the supplement of paper PMC11061612.

Below, each entry is listed with its recorded Bliss excess.
System: GI-1 (Glioblastoma)
Assay: Bliss excess, mean over the matrix (fraction); higher = more synergy
// print number alone

Prompt: # lookup: GI-1 (Glioblastoma) Bliss excess, key = CCc1c2c(nc3ccc(O)cc13)-c1cc3c(c(=O)n1C2)COC(=O)[C@]3(O)CC [SN-38] + O=C(c1cc(Cc2n[nH]c(=O)c3ccccc23)ccc1F)N1CCN(C(=O)C2CC2)CC1 [Olaparib] (first compound max 0.3 µM, 7x7, partner max 10 µM)
Completion: 0.0652

Prompt: Please report Bliss excess with GI-1 (Glioblastoma) for item O=C(c1cc(Cc2n[nH]c(=O)c3ccccc23)ccc1F)N1CCN(C(=O)C2CC2)CC1 [Olaparib] + CC1(C)CCC(CN2CCN(c3ccc(C(=O)NS(=O)(=O)c4ccc(NCC5CCOCC5)c([N+](=O)[O-])c4)c(Oc4cnc5[nH]ccc5c4)c3)CC2)=C(c2ccc(Cl)cc2)C1 [Venetoclax] (first compound max 10 µM, 7x7, partner max 1 µM) .
Completion: 0.0518

Prompt: Report value: Bliss excess, system: GI-1 (Glioblastoma), compound: NC1(C(=O)N[C@@H](CCO)c2ccc(Cl)cc2)CCN(c2ncnc3[nH]ccc23)CC1 [Capivasertib] + COc1nnc2ccc(N3CCC(c4ccc(OCCN5CCN(C)C(=O)[C@H]5C)cc4)CC3)nn12 [AZD5153] (first compound max 10 µM, 7x7, partner max 1 µM)
Completion: 0.0578

Prompt: Name the recorded Bliss excess of CN(CCO)CC[C@H](CSc1ccccc1)Nc1ccc(S(=O)(=O)NC(=O)c2ccc(N3CCC([C@@H](O)c4ccccc4-c4ccc(Cl)cc4)CC3)cc2)cc1S(=O)(=O)C(F)(F)F [AZD4320] + CC(=O)O[C@H]1C(=O)[C@@]2(C)[C@H]([C@H](OC(=O)c3ccccc3)[C@]3(O)C[C@H](OC(=O)[C@H](O)[C@@H](NC(=O)c4ccccc4)c4ccccc4)C(C)=C1C3(C)C)[C@]1(OC(C)=O)CO[C@@H]1C[C@@H]2O [Paclitaxel] (first compound max 1 µM, 7x7, partner max 3 µM) , assay system GI-1 (Glioblastoma).
Completion: 0.0374

Prompt: Lab note: record Bliss excess of Cn1cnc2c(F)c(Nc3ccc(Br)cc3Cl)c(C(=O)NOCCO)cc21 [Selumetinib] + CCN(CCO)CCCOc1ccc2c(Nc3cc(CC(=O)Nc4cccc(F)c4)[nH]n3)ncnc2c1 [AZD2811] (first compound max 10 µM, 7x7, partner max 1 µM) tested on GI-1 (Glioblastoma).
Completion: -0.104

====

System: BV-173 (Chronic Myelogenous Leukemia)
Experiment: combination Emax (second highest fraction inhibited in the dose matrix, 72 h); higher = more inhibition; extreme values may be limits of the assay
measured-quantity: combination Emax

Reference set, count: 2
COc1cccc(OCCCN)c1-c1cc(Nc2cnc(C#N)cn2)n[nH]1 [Prexasertib] + CN(C)CCCOc1ccc(-c2ccc3ncc4c(c3c2)n(C2CCOCC2)c(=O)n4C)cn1 [AZD0156] (first compound max 1 µM, 7x7, partner max 1 µM) ... 0.97
COc1cccc(OCCCN)c1-c1cc(Nc2cnc(C#N)cn2)n[nH]1 [Prexasertib] + C=CCn1c(=O)c2cnc(Nc3ccc(N4CCN(C)CC4)cc3)nc2n1-c1cccc(C(C)(C)O)n1 [AZD1775] (first compound max 1 µM, partner max 1 µM) ... 0.994

# next molecule below
Prompt: Look up and state reported combination Emax for COc1nnc2ccc(N3CCC(c4ccc(OCCN5CCN(C)C(=O)[C@H]5C)cc4)CC3)nn12 [AZD5153] + CCN(CCO)CCCOc1ccc2c(Nc3cc(CC(=O)Nc4cccc(F)c4)[nH]n3)ncnc2c1 [AZD2811] (first compound max 1 µM, 7x7, partner max 1 µM)
Completion: 0.936

====

Tested on: SNU-C1 (Colorectal Carcinoma)
Assay: combination Emax (second highest fraction inhibited in the dose matrix, 72 h); higher = more inhibition; extreme values may be limits of the assay
Binary classification by combination Emax, with 0.4 as an inclusive lower bound for YES; all other cases are NO.

Before answering, review these 4 worked examples.
CN(C)CCCOc1ccc(-c2ccc3ncc4c(c3c2)n(C2CCOCC2)c(=O)n4C)cn1 [AZD0156] + C=CCn1c(=O)c2cnc(Nc3ccc(N4CCN(C)CC4)cc3)nc2n1-c1cccc(C(C)(C)O)n1 [AZD1775] (first compound max 1 µM, partner max 1 µM) ... NO
Cc1c2c(nn1C)CSCc1cc(n(C)n1)CSc1cc(c3ccccc3c1)OCCCc1c(C(=O)O)n(C)c3c-2c(Cl)ccc13 [AZD5991] + CCN(CCO)CCCOc1ccc2c(Nc3cc(CC(=O)Nc4cccc(F)c4)[nH]n3)ncnc2c1 [AZD2811] (first compound max 1 µM, 7x7, partner max 1 µM) ... YES
COc1cccc(OCCCN)c1-c1cc(Nc2cnc(C#N)cn2)n[nH]1 [Prexasertib] + C[C@@H]1COCCN1C2=NC(=NC(=C2)C3(CC3)[S@](=N)(=O)C)C4=C5C=CNC5=NC=C4 [AZD6738] (first compound max 1 µM, 7x7, partner max 10 µM) ... YES
NC1(C(=O)N[C@@H](CCO)c2ccc(Cl)cc2)CCN(c2ncnc3[nH]ccc23)CC1 [Capivasertib] + Cn1cnc2c(F)c(Nc3ccc(Br)cc3Cl)c(C(=O)NOCCO)cc21 [Selumetinib] (first compound max 10 µM, 7x7, partner max 10 µM) ... YES

Now examine the next entry.
Prompt: Could you please find out whether CC1(C)CCC(CN2CCN(c3ccc(C(=O)NS(=O)(=O)c4ccc(NCC5CCOCC5)c([N+](=O)[O-])c4)c(Oc4cnc5[nH]ccc5c4)c3)CC2)=C(c2ccc(Cl)cc2)C1 [Venetoclax] + CN(C)CCCOc1ccc(-c2ccc3ncc4c(c3c2)n(C2CCOCC2)c(=O)n4C)cn1 [AZD0156] (first compound max 1 µM, 7x7, partner max 1 µM) has combination Emax that meets 0.4 or exceeds it?
Completion: NO

====

System: OVISE (Ovarian Carcinoma)
Assay: combination Emax (second highest fraction inhibited in the dose matrix, 72 h); higher = more inhibition; extreme values may be limits of the assay
Readings of combination Emax for the listed molecules

Cn1cnc2c(F)c(Nc3ccc(Br)cc3Cl)c(C(=O)NOCCO)cc21 [Selumetinib] + C[C@@H]1COCCN1C2=NC(=NC(=C2)C3(CC3)[S@](=N)(=O)C)C4=C5C=CNC5=NC=C4 [AZD6738] (first compound max 10 µM, 7x7, partner max 10 µM) ... 0.54
Cc1cc2ncnn2cc1Nc1ncc2c(n1)n(C1CCOCC1)c(=O)n2C [AZD7648] + O=C(c1cc(Cc2n[nH]c(=O)c3ccccc23)ccc1F)N1CCN(C(=O)C2CC2)CC1 [Olaparib] (first compound max 10 µM, 7x7, partner max 10 µM) ... 0.19

Would you kindly look at the next entry?
Prompt: Look up and state reported combination Emax for CC1(C)CCC(CN2CCN(c3ccc(C(=O)NS(=O)(=O)c4ccc(NCC5CCOCC5)c([N+](=O)[O-])c4)c(Oc4cnc5[nH]ccc5c4)c3)CC2)=C(c2ccc(Cl)cc2)C1 [Venetoclax] + CCN(CCO)CCCOc1ccc2c(Nc3cc(CC(=O)Nc4cccc(F)c4)[nH]n3)ncnc2c1 [AZD2811] (first compound max 1 µM, 7x7, partner max 1 µM)
Completion: 0.311

====

System: TGBC11TKB (Gastric Carcinoma)
Assay: Bliss excess, mean over the matrix (fraction); higher = more synergy
In this section, each of the molecules is paired with its reported Bliss excess.

Prompt: For the molecule CN(C)CCCOc1ccc(-c2ccc3ncc4c(c3c2)n(C2CCOCC2)c(=O)n4C)cn1 [AZD0156] + C[C@@H]1COCCN1C2=NC(=NC(=C2)C3(CC3)[S@](=N)(=O)C)C4=C5C=CNC5=NC=C4 [AZD6738] (first compound max 1 µM, 7x7, partner max 10 µM) , give its reported Bliss excess.
Completion: 0.0055

Prompt: Kindly indicate its recorded Bliss excess. Item: Cc1c2c(nn1C)CSCc1cc(n(C)n1)CSc1cc(c3ccccc3c1)OCCCc1c(C(=O)O)n(C)c3c-2c(Cl)ccc13 [AZD5991] + CCN(CCO)CCCOc1ccc2c(Nc3cc(CC(=O)Nc4cccc(F)c4)[nH]n3)ncnc2c1 [AZD2811] (first compound max 1 µM, 7x7, partner max 1 µM)
Completion: 0.0266

Prompt: Please give the documented Bliss excess of Cn1cnc2c(F)c(Nc3ccc(Br)cc3Cl)c(C(=O)NOCCO)cc21 [Selumetinib] + CC(C)n1c(=O)n(C)c2cnc3cc(F)c(-c4ccc(OCCCN5CCCCC5)nc4)cc3c21 [AZD1390] (first compound max 10 µM, 7x7, partner max 0.3 µM)
Completion: -0.0167

Prompt: Respond only with Bliss excess recorded for Cc1cc2ncnn2cc1Nc1ncc2c(n1)n(C1CCOCC1)c(=O)n2C [AZD7648] + COc1cc([C@@H]2c3cc4c(cc3[C@@H](O[C@@H]3O[C@@H]5CO[C@@H](C)O[C@H]5[C@H](O)[C@H]3O)[C@H]3COC(=O)[C@H]23)OCO4)cc(OC)c1O [Etoposide] (first compound max 10 µM, 7x7, partner max 10 µM)
Completion: -0.0517

Prompt: Return Bliss excess for the following molecule: CC1(C)CCC(CN2CCN(c3ccc(C(=O)NS(=O)(=O)c4ccc(NCC5CCOCC5)c([N+](=O)[O-])c4)c(Oc4cnc5[nH]ccc5c4)c3)CC2)=C(c2ccc(Cl)cc2)C1 [Venetoclax] + Cn1cnc2c(F)c(Nc3ccc(Br)cc3Cl)c(C(=O)NOCCO)cc21 [Selumetinib] (first compound max 1 µM, 7x7, partner max 3 µM)
Completion: 0.0049

Prompt: Give me measured Bliss excess, please, for this molecule: Cc1c2c(nn1C)CSCc1cc(n(C)n1)CSc1cc(c3ccccc3c1)OCCCc1c(C(=O)O)n(C)c3c-2c(Cl)ccc13 [AZD5991] + C1CN(CCC1(C(=O)N[C@@H](CCO)C2=CC=C(C=C2)Cl)N)C3=NC=NC4=C3C=CN4 [Capivasertib] (first compound max 1 µM, 7x7, partner max 3 µM)
Completion: 0.0116
